Assay: inhibition of 3D7 malaria parasite growth – strain 3D7 (AID 2306);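 note: 0% = DMSO wells and 100% = chloroquine plus artemisinin control wells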
Settings: P. falciparum 3D7 erythrocytic growth, LDH absorbance, 72 h; at 2 µM; stronger effect = higher value
VALUE_TYPE: growth inhibition (%)
Report the value in % with no unit label.

molecule=COc1ccc(Cn2c(SCc3ccc(C)cc3)nc3cc(OC)c(OC)cc3c2=N)cc1Cl unit_info=% obs_value=92
molecule=COc1cc2c(cc1S(=O)(=O)c1ccc(NC(=O)c3cc4ccccc4s3)cc1)CCN(C)CC2 unit_info=% obs_value=100

Task item: If you can, please state the reported growth inhibition value of CCCc1cc(Cc2cnc(N)nc2N)cc(CCC)c1OC .
Reply: 92

Task item: If you can, please state the reported growth inhibition value of CN(C)C(=O)C(CC(=O)NCc1ccccc1Cl)N(C)C (centres undefined) (tested in a mixture with another compound) .
Reply: 96

###

Recorded nuclear beta-catenin stimulation by entry
Experiment: stimulators of nuclear beta-catenin in C2C12, primary screen, imaging, WNT3A-conditioned medium, mouse C2C12, NPC library (AID 1117326); note: reference of the scale not given here
Conditions: stimulation, at 2 µM, stronger effect = higher value
Respond with the figure and its unit, in that order.

compound=S=C=Nc1ccc(N=C=S)cc1 value_type="nuclear beta-catenin stimulation" obs_value=-0.1%

Task item: If you can, please state the reported nuclear beta-catenin stimulation value of CN1C[C@H]2c3ccccc3Oc3ccc(Cl)cc3[C@@H]2C1 .
Reply: -0.7%

Task item: If you can, please state the reported nuclear beta-catenin stimulation value of CCCCCCCCCCOc1cc2c(=O)c(C(=O)OCC)c[nH]c2cc1OCC .
Reply: -0.1%

Task item: If you can, please state the reported nuclear beta-catenin stimulation value of C=CCCCCCCCCC(=O)OC .
Reply: 2%

###

Target: 6-phosphogluconate dehydrogenase, decarboxylating (Homo sapiens) (UniProt P52209)
Sequence (P52209 whole entry, looked up): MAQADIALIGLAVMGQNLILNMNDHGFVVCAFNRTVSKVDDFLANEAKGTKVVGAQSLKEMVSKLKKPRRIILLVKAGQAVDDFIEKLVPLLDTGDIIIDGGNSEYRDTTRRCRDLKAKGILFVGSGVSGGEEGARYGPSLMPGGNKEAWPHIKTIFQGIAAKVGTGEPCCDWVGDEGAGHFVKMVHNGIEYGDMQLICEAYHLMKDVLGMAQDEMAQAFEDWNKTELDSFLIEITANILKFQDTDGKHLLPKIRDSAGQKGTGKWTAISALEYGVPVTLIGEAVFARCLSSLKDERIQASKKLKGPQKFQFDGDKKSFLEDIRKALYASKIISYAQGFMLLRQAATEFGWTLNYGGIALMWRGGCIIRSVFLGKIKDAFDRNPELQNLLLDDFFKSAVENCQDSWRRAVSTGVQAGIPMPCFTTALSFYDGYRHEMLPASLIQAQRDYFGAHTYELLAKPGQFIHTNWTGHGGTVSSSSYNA
Assay: 6PGD enzyme inhibitors, primary screen, biochemical, human, recombinant enzyme, NADPH absorbance (AID 1159550)
Details: recombinant 6PGD, NADPH absorbance 341 nm; at 10 µM; stronger effect = higher value
VALUE_TYPE: inhibition (%)
Report the value in % with no unit label.

compound="Oc1ccc2c(c1)OC(c1ccc(O)c(O)c1)C(O)C2 (configuration not stated)" value_type=inhibition unit_info=% obs_value=6.96
compound=COc1c(O)cc2c(-c3ccccc3)cc(=O)oc2c1OC value_type=inhibition unit_info=% obs_value=-3.61
compound="C=C1CCC2C(CC2(C)C)C(=C)CC/C1=N/O (configuration not stated)" value_type=inhibition unit_info=% obs_value=16.7
compound="C=C[C@H]1CN2CCC1C[C@@H]2[C@@H](O)c1ccnc2ccc(OC)cc12 (some centres not stated)" value_type=inhibition unit_info=% obs_value=-0.543
compound=COc1ccc(C(Cl)=C(c2ccc(OC)cc2)c2ccc(OC)cc2)cc1 value_type=inhibition unit_info=% obs_value=7.15
compound=COC(=O)c1c(C)cc(OC(=O)c2c(C)cc(O)c(C=O)c2O)c(C)c1O value_type=inhibition unit_info=% obs_value=1.13
compound=NC[C@@H]1CC[C@@H](N)[C@@H](O[C@H]2[C@H](O)[C@@H](O[C@H]3O[C@H](CO)[C@@H](O)[C@H](N)[C@H]3O)[C@H](N)C[C@@H]2N)O1 value_type=inhibition unit_info=% obs_value=-2.83
compound="COc1c(-c2coc3cc4c(cc3c2=O)CC(O)C(C)(C)O4)ccc2c1C=CC(C)(C)O2 (configuration not stated)" value_type=inhibition unit_info=% obs_value=-4.11

Task item: If you can, please state the reported inhibition value of CC(=O)OC[C@H]1O[C@@H](Oc2cc(OC(C)=O)c3c(=O)cc(-c4ccc(OC(C)=O)cc4)oc3c2)[C@H](OC(C)=O)[C@@H](OC(C)=O)[C@@H]1OC(C)=O .
Reply: 6.51

Task item: If you can, please state the reported inhibition value of COC(=O)C[C@H]1C(C)(C)C(=O)[C@@H]2CC3C4=CC(=O)O[C@@H](c5ccoc5)[C@]4(C)CC[C@@H]3[C@@]1(C)C2=O (some centres not stated) .
Reply: 12.7

Task item: If you can, please state the reported inhibition value of O=C(O)c1cccnc1C(=O)O .
Reply: 2.35

Task item: If you can, please state the reported inhibition value of COc1ccc(C2COc3c(ccc(O)c3OC)C2)c(OC)c1O (configuration not stated) .
Reply: -5.05

Task item: If you can, please state the reported inhibition value of CC12CCC3c4ccc(OCc5ccccc5)cc4CCC3C1C[C@@H](O)[C@@H]2O (some centres not stated) .
Reply: -6.08

Task item: If you can, please state the reported inhibition value of CC(=O)O[C@@H]1CC2C(C)(C)[C@H](O)C[C@H](O)[C@]2(C)C2CC[C@@]3(C)C(=CC(=O)O[C@H]3c3ccoc3)[C@@]21C (some centres not stated) .
Reply: 13.2

Task item: If you can, please state the reported inhibition value of OC[C@H]1O[C@@H](n2cnc3c(NCc4ccco4)ncnc32)[C@H](O)[C@@H]1O .
Reply: 3.79

Task item: If you can, please state the reported inhibition value of C[C@@]12C[C@@]3(O)O[C@@H](O1)[C@]1(COC(=O)c4ccccc4)[C@H]3C[C@@]12O[C@@H]1O[C@H](CO)[C@@H](O)[C@H](O)[C@H]1O .
Reply: -7.19

Task item: If you can, please state the reported inhibition value of CC[C@H](CC[C@@H](C)[C@H]1CC[C@H]2[C@@H]3CC=C4C[C@@H](OC(C)=O)CC[C@]4(C)[C@H]3CC[C@]12C)C(C)C .
Reply: 9.08

Task item: If you can, please state the reported inhibition value of NCCSSCCN .
Reply: 7.72

Task item: If you can, please state the reported inhibition value of CC(=O)O[C@@H]1CC2C(C)(C)C=CC(=O)[C@]2(C)C2CC[C@@]3(C)[C@H](c4ccoc4)OC(=O)C4OC43[C@@]21C (some centres not stated) .
Reply: -6.87

Values were extracted from PubChem BioAssay.
